Hello, the source for this data is PubChem BioAssay AID2060613, in case you need it.

Tested on: 233499-124-R-J3-PDC complex spheroid viability
Assay: Anticancer human tumor 233499-124-R-J3-PDC patient-derived colon adenocarcinoma cell line growth inhibition [CLK]
Conditions: second compound 0.1 µM; first compound 10 µM; stronger effect = lower value
attribute measured: viability, T/C (%)
Answers are plain numbers, in %.

Study these solved cases before continuing.
molecule	result units	quantitative readout
O=C(c1cc(Cc2n[nH]c(=O)c3ccccc23)ccc1F)N1CCN(C(=O)C2CC2)CC1 + CN1CCN(c2cc(C(=O)Nc3cc4cc(-c5cnn(C)c5)ccc4cn3)ccn2)CC1	%	82.4
COC1C=CCC(C)C(C)S(=O)(=O)NC(=O)c2ccc3c(c2)N(CC2CCC21)CC1(CCCc2cc(Cl)ccc21)CO3 (stereo not given) + CN1CCN(c2cc(C(=O)Nc3cc4cc(-c5cnn(C)c5)ccc4cn3)ccn2)CC1	%	7.28

For each of the molecules below, note its viability, T/C.
1. C#Cc1c(F)ccc2cc(O)cc(-c3ncc4c(N5CC6CCC(C5)N6)nc(OCC56CCCN5CC(F)C6)nc4c3F)c12 (stereo not given) + CN1CCN(c2cc(C(=O)Nc3cc4cc(-c5cnn(C)c5)ccc4cn3)ccn2)CC1
2. C=CC(=O)N1CCN(c2nc(=O)n(-c3c(C)ccnc3C(C)C)c3nc(-c4c(O)cccc4F)c(F)cc23)C(C)C1 (stereo not given) + CN1CCN(c2cc(C(=O)Nc3cc4cc(-c5cnn(C)c5)ccc4cn3)ccn2)CC1
3. CC1COCCN1c1cc(C2(S(C)(=N)=O)CC2)nc(-c2ccnc3[nH]ccc23)n1 (stereo not given) + CNC(=O)c1ccc(Nc2nc(OC3CCCC3)c3c(-c4ccc5nc(C)oc5c4)c[nH]c3n2)c(OC)c1

result:
71.4
108
47.2

====

Test system: 233499-124-R-J3-PDC complex spheroid viability
Experiment: Anticancer human tumor 233499-124-R-J3-PDC cell line growth inhibition [CLK]; active means viability on the fitted dose curve at most 10% of control; inactive means the rest;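 also: spheroids exposed to the drug combinations for seven days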
Conditions: second compound 0.0316 µM; first compound 1 µM
Just give me one of these, please: active, inactive

# count of solved cases: 5
molecule	label class
CCN1CCN(Cc2ccc(Nc3ncc(F)c(-c4cc(F)c5nc(C)n(C(C)C)c5c4)n3)nc2)CC1 + CNC(=O)c1ccc(Nc2nc(OC3CCCC3)c3c(-c4ccc5nc(C)oc5c4)c[nH]c3n2)c(OC)c1	inactive
COc1ccc([C@@H](O)c2cc(-c3ncnc4cc(N5CCOCC5)ccc34)c(F)cc2Cl)nn1 + CN1CCN(c2cc(C(=O)Nc3cc4cc(-c5cnn(C)c5)ccc4cn3)ccn2)CC1	inactive
COc1c(OCCCN2CCOCC2)ccc2c3n(c(=NC(=O)c4cnc(N)nc4)nc12)CCN3 + CNC(=O)c1ccc(Nc2nc(OC3CCCC3)c3c(-c4ccc5nc(C)oc5c4)c[nH]c3n2)c(OC)c1	active
Nc1ccccc1NC(=O)c1ccc(CNC(=O)OCc2cccnc2)cc1 + CN1CCN(c2cc(C(=O)Nc3cc4cc(-c5cnn(C)c5)ccc4cn3)ccn2)CC1	inactive
CCCS(=O)(=O)Nc1ccc(F)c(C(=O)c2c[nH]c3ncc(-c4ccc(Cl)cc4)cc23)c1F + CNC(=O)c1ccc(Nc2nc(OC3CCCC3)c3c(-c4ccc5nc(C)oc5c4)c[nH]c3n2)c(OC)c1	inactive

query: Entry CC(Nc1ccc2c(c1)OCCn1cc(N3C(=O)OCC3C(F)F)nc1-2)C(N)=O (stereo unspecified) + CNC(=O)c1ccc(Nc2nc(OC3CCCC3)c3c(-c4ccc5nc(C)oc5c4)c[nH]c3n2)c(OC)c1 : call = ?
result: inactive

query: Entry CC1(C)CCC(CN2CCN(c3ccc(C(=O)NS(=O)(=O)c4ccc(NCC5CCOCC5)c([N+](=O)[O-])c4)c(Oc4cnc5[nH]ccc5c4)c3)CC2)=C(c2ccc(Cl)cc2)C1 + CNC(=O)c1ccc(Nc2nc(OC3CCCC3)c3c(-c4ccc5nc(C)oc5c4)c[nH]c3n2)c(OC)c1 : call = ?
result: inactive

====

System: 233499-124-R-J3-PDC complex spheroid viability
Assay: Anticancer human tumor 233499-124-R-J3-PDC cell line growth inhibition [CLK];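 also: spheroids exposed to the drug combinations for seven days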;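 as to viability, T/C: percent viability relative to DMSO vehicle control wells taken as 100%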
Details: second compound 0.0316 µM; first compound 1 µM; stronger effect = lower value
For each entry below, report its viability, T/C value.
Give bare numbers, in %.

Study these solved cases before continuing.
compound	viability, T/C, %
O=c1[nH]cc(F)c(=O)[nH]1 + CNC(=O)c1ccc(Nc2nc(OC3CCCC3)c3c(-c4ccc5nc(C)oc5c4)c[nH]c3n2)c(OC)c1	28.5
COc1cccc2c1C(=O)c1c(O)c3c(c(O)c1C2=O)CC(O)(C(=O)CO)CC3OC1CC(N)C(O)C(C)O1 (stereo not given) + CNC(=O)c1ccc(Nc2nc(OC3CCCC3)c3c(-c4ccc5nc(C)oc5c4)c[nH]c3n2)c(OC)c1	38.5
CC1(C)CCC(CN2CCN(c3ccc(C(=O)NS(=O)(=O)c4ccc(NCC5CCOCC5)c([N+](=O)[O-])c4)c(Oc4cnc5[nH]ccc5c4)c3)CC2)=C(c2ccc(Cl)cc2)C1 + CN1CCN(c2cc(C(=O)Nc3cc4cc(-c5cnn(C)c5)ccc4cn3)ccn2)CC1	112
COC1C=CCC(C)C(C)S(=O)(=O)NC(=O)c2ccc3c(c2)N(CC2CCC21)CC1(CCCc2cc(Cl)ccc21)CO3 (stereo not given) + CN1CCN(c2cc(C(=O)Nc3cc4cc(-c5cnn(C)c5)ccc4cn3)ccn2)CC1	80.2

Now for another entry.
query: So what does the record say about viability, T/C for COC1C=CCC(C)C(C)S(=O)(=O)NC(=O)c2ccc3c(c2)N(CC2CCC21)CC1(CCCc2cc(Cl)ccc21)CO3 (stereo not given) + CNC(=O)c1ccc(Nc2nc(OC3CCCC3)c3c(-c4ccc5nc(C)oc5c4)c[nH]c3n2)c(OC)c1 ?
result: 82.2

====

Test system: 233499-124-R-J3-PDC complex spheroid viability
Assay: Anticancer human tumor 233499-124-R-J3-PDC cell line growth inhibition [CLK];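 also: spheroids exposed to the drug combinations for seven days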
Settings: curve of first compound; second compound 10 µM
From the text: A high-throughput screen of multi-cell type tumor spheroids was designed to identify active combinations of […] and targeted small molecules. Complex spheroids include a stromal component modeled by human endothelial cells (HUVEC) and fibroblasts modeled by human mesenchymal stem cells (MSCs). […] Compounds. […] If the clinical Cmax for an agent had not been determined, the highest concentration tested was 10 microM. […]
attribute measured: IC50 (nM)
Answers are plain numbers, in nM.

molecule	measured on	IC50, nM
O=c1[nH]cc(F)c(=O)[nH]1 + CNC(=O)c1ccc(Nc2nc(OC3CCCC3)c3c(-c4ccc5nc(C)oc5c4)c[nH]c3n2)c(OC)c1	233499-124-R-J3-PDC complex spheroid viability	195

query: So what does the record say about IC50 for C=C(F)C(=O)N1CCN(c2nc(OCC3CCCN3C)nc3c2CCN(c2cccc4cccc(Cl)c24)C3)CC1CC#N (stereo not given) + CNC(=O)c1ccc(Nc2nc(OC3CCCC3)c3c(-c4ccc5nc(C)oc5c4)c[nH]c3n2)c(OC)c1 ?
result: 5200

====

Test system: 233499-124-R-J3-PDC complex spheroid viability
Assay: Anticancer human tumor 233499-124-R-J3-PDC cell line growth inhibition [CLK];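 also: spheroids exposed to the drug combinations for seven days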;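 as to viability, T/C: percent viability relative to DMSO vehicle control wells taken as 100%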
Settings: second compound 1 µM; first compound 0.1 µM; stronger effect = lower value
attribute measured: viability, T/C (%)
One number for each entry, in %.

compound	viability, T/C [%]
COc1c(OCCCN2CCOCC2)ccc2c3n(c(=NC(=O)c4cnc(N)nc4)nc12)CCN3 + CNC(=O)c1ccc(Nc2nc(OC3CCCC3)c3c(-c4ccc5nc(C)oc5c4)c[nH]c3n2)c(OC)c1	31.6

For each of the compounds below, note its viability, T/C.
1. CC(CO)NC(=O)c1cc(-c2ccc(Cl)cc2)nn(-c2cnn(C)c2)c1=O (stereo not given) + CN1CCN(c2cc(C(=O)Nc3cc4cc(-c5cnn(C)c5)ccc4cn3)ccn2)CC1
2. C=CC(=O)N1CCN(c2nc(=O)n(-c3c(C)ccnc3C(C)C)c3nc(-c4c(O)cccc4F)c(F)cc23)C(C)C1 (stereo not given) + CNC(=O)c1ccc(Nc2nc(OC3CCCC3)c3c(-c4ccc5nc(C)oc5c4)c[nH]c3n2)c(OC)c1
3. CC(Nc1ccc2c(c1)OCCn1cc(N3C(=O)OCC3C(F)F)nc1-2)C(N)=O (stereo not given) + CNC(=O)c1ccc(Nc2nc(OC3CCCC3)c3c(-c4ccc5nc(C)oc5c4)c[nH]c3n2)c(OC)c1
4. COc1cccc2c1C(=O)c1c(O)c3c(c(O)c1C2=O)CC(O)(C(=O)CO)CC3OC1CC(N)C(O)C(C)O1 (stereo not given) + CN1CCN(c2cc(C(=O)Nc3cc4cc(-c5cnn(C)c5)ccc4cn3)ccn2)CC1
5. COc1ccc([C@@H](O)c2cc(-c3ncnc4cc(N5CCOCC5)ccc34)c(F)cc2Cl)nn1 + CNC(=O)c1ccc(Nc2nc(OC3CCCC3)c3c(-c4ccc5nc(C)oc5c4)c[nH]c3n2)c(OC)c1

result:
1: 1.01; 2: 73.7; 3: 74.9; 4: 0.59; 5: 64

For each of the compounds below, note its viability, T/C.
1. CCc1c2c(nc3ccc(O)cc13)-c1cc3c(c(=O)n1C2)COC(=O)[C@]3(O)CC + CN1CCN(c2cc(C(=O)Nc3cc4cc(-c5cnn(C)c5)ccc4cn3)ccn2)CC1
2. C=C(F)C(=O)N1CCN(c2nc(OCC3CCCN3C)nc3c2CCN(c2cccc4cccc(Cl)c24)C3)CC1CC#N (stereo not given) + CN1CCN(c2cc(C(=O)Nc3cc4cc(-c5cnn(C)c5)ccc4cn3)ccn2)CC1

result:
[0.38, 3.93]

For each of the compounds below, note its viability, T/C.
1. COC1C=CCC(C)C(C)S(=O)(=O)NC(=O)c2ccc3c(c2)N(CC2CCC21)CC1(CCCc2cc(Cl)ccc21)CO3 (stereo not given) + CNC(=O)c1ccc(Nc2nc(OC3CCCC3)c3c(-c4ccc5nc(C)oc5c4)c[nH]c3n2)c(OC)c1
2. CC1COCCN1c1cc(C2(S(C)(=N)=O)CC2)nc(-c2ccnc3[nH]ccc23)n1 (stereo not given) + CN1CCN(c2cc(C(=O)Nc3cc4cc(-c5cnn(C)c5)ccc4cn3)ccn2)CC1

result:
[51.6, 1.1]
